Recorded pIC50 values (UniProt:P81908) are given below.
The read-out pIC50 is expressed as -log10 of concentration in moles per litre.

See these solved cases before continuing.
| ITEM_SMILES | pIC50 |
| --- | --- |
| COc1cc(C(=O)N2CCC(Cc3ccccc3)CC2)ccc1OCCCCN1CCC(CCCc2ccccc2)CC1 | 5.96 |
| COc1cc(CCC(=O)N2CCC(Cc3ccccc3)CC2)ccc1OC(=O)CCCCN1CCC(CCCc2ccccc2)CC1 | 6.14 |

Now let's try a different one.
q: Give recorded pIC50 with UniProt:P81908 for the following molecule: COc1cc(CCC(=O)N2CCC(Cc3ccccc3)CC2)ccc1OCCCCN1CCC(C(=O)c2ccc(F)cc2)CC1
a: 6.51

----------
As a worked illustration, we turn to pIC50 data collected for UniProt:O42275.
// pIC50: -log10(molar conc.)

# annotated cases, reported pIC50 shown
| MOLECULE | TEST_TARGET | pIC50 |
| --- | --- | --- |
| COc1cc(C(=O)N2CCC(Cc3ccccc3)CC2)ccc1OCCCCN1CC(C)CC(C)C1 (centres unmarked) [7g] | UniProt:O42275 | 5.64 |
| COc1cc(CCC(=O)N2CCC(Cc3ccccc3)CC2)ccc1OCCCCN1CCC(c2noc3ccccc23)CC1 [8k] | UniProt:O42275 | 5.26 |
| CCN(CCCCCOc1ccc(CCC(=O)N2CCC(Cc3ccccc3)CC2)cc1OC)Cc1ccccc1 [10c] | UniProt:O42275 | 5.21 |
| CCN(CCCCCCOc1ccc(CCC(=O)N2CCC(Cc3ccccc3)CC2)cc1OC)Cc1ccccc1 [10d] | UniProt:O42275 | 5.34 |
| COc1cc(CCC(=O)N2CCC(Cc3ccccc3)CC2)ccc1OCCCCN1CCC(C(=O)c2ccc(F)cc2)CC1 [8j] | UniProt:O42275 | 5.31 |
| CCN(CCCCOc1ccc(C(=O)N2CCC(Cc3ccccc3)CC2)cc1OC)Cc1ccccc1 [7e] | UniProt:O42275 | 5.55 |
| COc1cc(C(=O)N2CCC(Cc3ccccc3)CC2)ccc1OCCCCN1CCC(CCCc2ccccc2)CC1 [7c] | UniProt:O42275 | 5.47 |

Next item in the queue.
q: Enter reported pIC50 observed with UniProt:O42275 for CCN(CC)CCCCOc1ccc(C(=O)N2CCC(Cc3ccccc3)CC2)cc1OC [7f]
a: 5.07

----------
Record: pIC50 reported on eeAChE (Electrophorus electricus, UniProt O42275).
Sequence (O42275 24-633): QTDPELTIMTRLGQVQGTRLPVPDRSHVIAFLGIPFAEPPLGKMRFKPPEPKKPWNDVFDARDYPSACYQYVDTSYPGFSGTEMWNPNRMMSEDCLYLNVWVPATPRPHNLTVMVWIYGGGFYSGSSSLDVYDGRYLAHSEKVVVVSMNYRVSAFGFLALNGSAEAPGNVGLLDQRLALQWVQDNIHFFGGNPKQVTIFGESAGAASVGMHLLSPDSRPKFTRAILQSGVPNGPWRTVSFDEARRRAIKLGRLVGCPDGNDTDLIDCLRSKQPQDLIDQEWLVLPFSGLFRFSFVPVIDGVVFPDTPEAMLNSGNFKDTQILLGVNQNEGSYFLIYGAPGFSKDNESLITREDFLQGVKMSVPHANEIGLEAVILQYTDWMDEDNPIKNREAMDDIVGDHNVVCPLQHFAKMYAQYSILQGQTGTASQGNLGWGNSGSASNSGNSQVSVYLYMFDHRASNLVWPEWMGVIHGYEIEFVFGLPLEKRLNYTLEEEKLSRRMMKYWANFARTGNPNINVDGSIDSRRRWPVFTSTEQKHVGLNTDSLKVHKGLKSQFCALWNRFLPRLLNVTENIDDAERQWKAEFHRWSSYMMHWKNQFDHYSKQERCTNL
// pIC50: -log10(molar conc.)

| COMPOUND | pIC50 |
| --- | --- |
| COc1cc(CCC(=O)N2CCC(Cc3ccccc3)CC2)ccc1OCCCCN1CC(C)CC(C)C1 (stereo not drawn) | 5.19 |
| CCN(CCOc1ccc(CCC(=O)N2CCC(Cc3ccccc3)CC2)cc1OC)Cc1ccccc1 [10a] | 5.44 |

q: Entry COc1cc(CCC(=O)N2CCC(Cc3ccccc3)CC2)ccc1OCCCCN1CCc2ccccc2C1 : reported pIC50 = ?
a: 5.21

----------
molecular target: eqBuChE (Equus caballus); test: BuChE inhibition, Ellman's assay; type: biochemical, equine; conditions: Selectivity Index, eeAChE and eqBuChE
METRIC_NAME: SI
A bare number is all that is needed in reply.

| COMPOUND | METRIC_NAME | VALUE |
| --- | --- | --- |
| COc1cc(CCC(=O)N2CCC(Cc3ccccc3)CC2)ccc1OC(=O)CCCCN1CCN(Cc2ccccc2)CC1 | SI | 1.1 |
| COc1cc(CCC(=O)N2CCC(Cc3ccccc3)CC2)ccc1OCCCCN1CCC(CCCc2ccccc2)CC1 | SI | 67 |
| CCN(CCCCCCOc1ccc(CCC(=O)N2CCC(Cc3ccccc3)CC2)cc1OC)Cc1ccccc1 [10d] | SI | 38 |

Consider now this further compound.
q: Report SI for COc1cc(CCC(=O)N2CCC(Cc3ccccc3)CC2)ccc1OCCCCN1CCC(c2ccccc2)CC1 please.
a: 36

----------
Observed pIC50 for eeAChE (Electrophorus electricus, UniProt O42275), reported per entry below.
Scale: negative log10 of molar concentration, which is what pIC50 denotes.

Reference set (3 entries):
| COMPOUND | TEST_TARGET | pIC50 |
| --- | --- | --- |
| COc1cc(CCC(=O)N2CCC(Cc3ccccc3)CC2)ccc1OCCCCN1CCC(CCCc2ccccc2)CC1 | eeAChE (Electrophorus electricus, UniProt O42275) | 5.38 |
| CCN(CC)CCCCOc1ccc(CCC(=O)N2CCC(Cc3ccccc3)CC2)cc1OC | eeAChE (Electrophorus electricus, UniProt O42275) | 5.08 |
| COc1cc(C(=O)N2CCC(Cc3ccccc3)CC2)ccc1OCCCCN1CCN(Cc2ccccc2)CC1 | eeAChE (Electrophorus electricus, UniProt O42275) | 5.10 |

q: For the record CCN(CCCCOc1c(OC)cc(C(=O)NC2CCN(Cc3ccccc3)CC2)cc1OC)Cc1ccccc1 , what value of pIC50 is listed for eeAChE (Electrophorus electricus, UniProt O42275)?
a: 5.24

q: I'm curious: which pIC50 was measured for CCN(CCCOc1ccc(CCC(=O)N2CCC(Cc3ccccc3)CC2)cc1OC)Cc1ccccc1 [10b] tested on eeAChE (Electrophorus electricus, UniProt O42275)?
a: 5.06

q: Tell me reported pIC50 for COc1cc(CCC(=O)N2CCC(Cc3ccccc3)CC2)ccc1OCCCCN1CCC(c2ccccc2)CC1 , tested with eeAChE (Electrophorus electricus, UniProt O42275).
a: 5.33

q: Param readout = pIC50; param system = eeAChE (Electrophorus electricus, UniProt O42275); param query = CCN(CCCCOc1c(OC)cc(C(=O)N2CCN(c3ccc(F)cc3)CC2)cc1OC)Cc1ccccc1 ; response: value
a: 5.16

q: Can you look up pIC50 on eeAChE (Electrophorus electricus, UniProt O42275) for COc1cc(CCC(=O)N2CCC(Cc3ccccc3)CC2)ccc1OC(=O)CCCCN1CCN(Cc2ccccc2)CC1 ?
a: 5.72

----------
target: eqBuChE (Equus caballus, UniProt P81908); assay: BuChE inhibition, Ellman's assay; assay type: biochemical, equine; settings: Selectivity Index, eeAChE and eqBuChE
Sequence (P81908 whole entry): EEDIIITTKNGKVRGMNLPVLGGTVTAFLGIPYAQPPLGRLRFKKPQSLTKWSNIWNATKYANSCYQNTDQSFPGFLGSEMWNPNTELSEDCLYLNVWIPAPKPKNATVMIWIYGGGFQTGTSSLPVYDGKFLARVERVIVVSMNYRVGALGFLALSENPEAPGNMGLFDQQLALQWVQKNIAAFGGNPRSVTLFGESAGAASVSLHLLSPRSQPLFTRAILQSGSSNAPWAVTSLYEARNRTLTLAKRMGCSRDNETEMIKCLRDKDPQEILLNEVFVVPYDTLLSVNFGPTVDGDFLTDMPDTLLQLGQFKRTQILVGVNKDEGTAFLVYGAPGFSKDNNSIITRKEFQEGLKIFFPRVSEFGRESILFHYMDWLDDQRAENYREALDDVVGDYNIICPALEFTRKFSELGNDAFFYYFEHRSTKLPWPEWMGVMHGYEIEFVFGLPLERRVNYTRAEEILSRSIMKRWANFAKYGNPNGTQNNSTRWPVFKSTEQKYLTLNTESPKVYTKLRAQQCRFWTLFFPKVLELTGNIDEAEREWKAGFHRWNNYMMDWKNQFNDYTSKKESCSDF
METRIC_NAME: SI

Check out these entries, answers already filled in.
| COMPOUND | TEST_TARGET | METRIC_NAME | VALUE |
| --- | --- | --- | --- |
| CCN(CCCCOc1ccc(C(=O)N2CCC(Cc3ccccc3)CC2)cc1OC)Cc1ccccc1 | eqBuChE (Equus caballus, UniProt P81908) | SI | 6.0 |
| COc1cc(CCC(=O)N2CCC(Cc3ccccc3)CC2)ccc1OC(=O)CCCCN1CCC(CCCc2ccccc2)CC1 | eqBuChE (Equus caballus, UniProt P81908) | SI | 11 |
| CCN(CCCCOc1c(OC)cc(C(=O)NC2CCN(Cc3ccccc3)CC2)cc1OC)Cc1ccccc1 | eqBuChE (Equus caballus, UniProt P81908) | SI | 2.2 |
| CCN(CCCCCOc1ccc(CCC(=O)N2CCC(Cc3ccccc3)CC2)cc1OC)Cc1ccccc1 [10c] | eqBuChE (Equus caballus, UniProt P81908) | SI | 81 |
| COc1cc(C(=O)N2CCC(Cc3ccccc3)CC2)ccc1OCCCCN1CCc2ccccc2C1 | eqBuChE (Equus caballus, UniProt P81908) | SI | 3.6 |

q: Item: CCN(CC)CCCCOc1ccc(CCC(=O)N2CCC(Cc3ccccc3)CC2)cc1OC Test system: eqBuChE (Equus caballus, UniProt P81908) Read-out: SI Value: ?
a: 30

q: Param readout = SI; param system = eqBuChE (Equus caballus, UniProt P81908); param query = CCN(CCCCCCCCCCOc1ccc(CCC(=O)N2CCC(Cc3ccccc3)CC2)cc1OC)Cc1ccccc1 [10f] ; response: value
a: 8.0

q: Recorded SI for COc1cc(CCC(=O)N2CCC(Cc3ccccc3)CC2)ccc1OC(=O)CCCCN1CCC(Cc2ccccc2)CC1 with eqBuChE (Equus caballus, UniProt P81908), please?
a: 8.7

q: Item: CCN(CCCCCCCCCOc1ccc(CCC(=O)N2CCC(Cc3ccccc3)CC2)cc1OC)Cc1ccccc1 [10e] Test system: eqBuChE (Equus caballus, UniProt P81908) Read-out: SI Value: ?
a: 30

q: Please tell me: SI of COc1cc(CCC(=O)N2CCC(Cc3ccccc3)CC2)ccc1OCCCCN1CCN(Cc2ccccc2)CC1 , system eqBuChE (Equus caballus, UniProt P81908)?
a: 1.8

q: Kindly state the measured SI obtained for CCN(CCCCOc1c(OC)cc(C(=O)N2CCN(c3ccc(F)cc3)CC2)cc1OC)Cc1ccccc1 with eqBuChE (Equus caballus, UniProt P81908).
a: 1.1

q: Recorded SI for COc1cc(C(=O)N2CCC(Cc3ccccc3)CC2)ccc1OCCCCN1CCC(CCCc2ccccc2)CC1 with eqBuChE (Equus caballus, UniProt P81908), please?
a: 3.1

Each recorded value in this set is attributed to paper PMC12138102.
